src = patent US10023565B2

Please respond with reported inhibition at 5 µM for every item in the list.
Test system: BT474
Assay: Antitumor bioactivity evaluation, breast cancer cells (ATPlite)
Assay type: cell-based
Settings: Homo sapiens, BT-474; test sample 5 μM, 72 hours; read-out: Inhibitory Rate % BT474
Answers are plain numbers, in %.

IN: Could you share which inhibition at 5 µM value was measured for CSc1nccc(N2CCC(N(C)Cc3ccccc3Cl)CC2)n1 [Example 47] ?
OUT: 60.4

Give inhibition at 5 µM for each listed item.
1. CN(Cc1ccc(Cl)c(Cl)c1)C1CCN(Cc2cnc(Cl)s2)CC1 [Example 17]
2. CS(=O)(=O)CCNCc1ccc(-c2ccc3ncnc(Nc4ccc(OCc5cccc(F)c5)c(Cl)c4)c3c2)o1 [lapatinib, reference compound]
3. COc1cc(N2CCC(N(C)Cc3ccc(C#N)cc3)CC2)ncn1 [Example 66]
4. Fc1ccc(CNC2CCN(Cc3cnc(Cl)s3)CC2)cc1 [Example 12]
5. CN(Cc1ccc(Cl)cc1Cl)C1CCN(Cc2cnc(Cl)s2)CC1 [Example 20]

OUT:
1: 45.4; 2: 75.6; 3: 25.1; 4: 5.4; 5: 64.1
